Cited source for all entries: patent US11021515B2

system: U87MG cells; assay: Cellular assay, inhibition of 2-HG production in U87MG cells; assay type: cell-based; conditions: Homo sapiens, U-87 MG, 48 h
MEASURED PROPERTY: IC50

Sample records with IC50:
| COMPOUND | IC50 |
| --- | --- |
| O=C(NC1CC(F)(F)C1)[C@H](c1ccccc1Cl)N(C(=O)[C@@H]1CCC(=O)N1c1ccccc1)c1cccc(F)c1 [Compound 23] | 0.1 to 0.5 µM |
| CS(=O)(=O)c1cc(F)cc(N(C(=O)[C@@H]2CCC(=O)N2c2cc(C#N)ccn2)C(C(=O)NC2CC(F)(F)C2)c2ccccc2Cl)c1 (mixture of isomers) [Compound 110] | < 0.1 µM |
| O=C(NC1CC(F)(F)C1)[C@H](c1ccccc1Cl)N(C(=O)[C@@H]1CCC(=O)N1c1cnccn1)c1cccc(F)c1 [Compound 18] | < 0.1 µM |

Take each entry in turn and give its IC50.
1. N#Cc1ccnc(N2C(=O)OC[C@H]2C(=O)N(c2cccc(F)c2)[C@H](C(=O)NC2CCC(F)(F)CC2)c2ccccc2Cl)c1 [Compound 78]
2. CS(=O)(=O)c1cc(F)cc(N(C(=O)[C@@H]2CCC(=O)N2c2nccc(C#N)n2)[C@H](C(=O)NC2CC(F)(F)C2)c2ccccc2Cl)c1 [Compound 109]
3. CS(=O)(=O)c1cc(F)cc(N(C(=O)[C@@H]2CCC(=O)N2c2cc(C#N)ccn2)C(C(=O)NC2CCC(F)(F)CC2)c2ccccc2Cl)c1 (mixture of isomers) [Compound 105]
4. O=C(NC1CC(F)(F)C1)[C@H](c1ccccc1Cl)N(C(=O)[C@@H]1CCC(=O)N1c1ccccn1)c1cccc(F)c1 [Compound 5]
5. CCOC(=O)CN1C[C@@H](C(=O)N(c2cccc(F)c2)[C@H](C(=O)NC2CC(F)(F)C2)c2ccccc2Cl)N(c2cc(C#N)ccn2)C1=O [Compound 94]

Return:
< 0.1 µM
0.1 to 0.5 µM
< 0.1 µM
0.1 to 0.5 µM
< 0.1 µM

For record N#Cc1ccnc(N2C(=O)CC[C@H]2C(=O)N(c2cccc(C3(O)CC3)c2)[C@H](C(=O)NC2CC(F)(F)C2)c2ccccc2Cl)c1 [Compound 140] the listed IC50 is < 0.1 µM
